Answer each item with its documented IC50.
biological target: RORC2 ligand binding domain (6-His-RORC2 LBD) (Homo sapiens, UniProt P51449); construct: made in house; host or cells: E. coli; assay: Co-activator recruitment by TR-FRET (RORC2 FRET); type: biochemical; conditions: 6.3 nM RORC2 LBD, 200 nM SRC1-2 coactivator peptide, 3 hours room temperature
Sequence (P51449 269-508 limits assumed): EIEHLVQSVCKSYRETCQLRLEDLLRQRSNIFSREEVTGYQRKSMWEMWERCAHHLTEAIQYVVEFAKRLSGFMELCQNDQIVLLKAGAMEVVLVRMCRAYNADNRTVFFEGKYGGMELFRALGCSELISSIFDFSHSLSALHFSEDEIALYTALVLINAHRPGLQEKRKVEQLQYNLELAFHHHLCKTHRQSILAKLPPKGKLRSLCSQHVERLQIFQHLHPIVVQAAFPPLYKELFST
Field: numeric (nM). Do not append units.

Task item: Any idea what IC50 came out for N#Cc1cccc(C(=O)Nc2ccc3onc(C4CCN(C(=O)C5CCCC5)CC4)c3c2)c1 on RORC2 ligand binding domain (6-His-RORC2 LBD) (Homo sapiens, UniProt P51449)?
Reply: 23.4

Task item: Field entry: COc1ccc(C#N)cc1C(=O)Nc1ccc2[nH]cc(C3CCN(C(=O)C4CCCC4)CC3)c2c1
Reply: 380

Task item: Field entry: Cn1cc(C2CCN(C(=O)C3CCCC3)CC2)c2cc(NC(=O)N3CC[C@H](C#N)C3)ccc21
Reply: 216

Task item: Field entry: CC(C)CC(=O)N1CCC(c2cn(C)c3ccc(NC(=O)c4cccc(C#N)c4)cc23)CC1
Reply: 17.9
